molecular target: Metallo-beta-lactamase type 2 (Klebsiella pneumoniae); assay: qHTS to identify inhibitors of the New Delhi Metallo-beta-lactamase (NDM): Meropenem screen against the machine-based learning selections.; details: Purified NDM-1, meropenem hydrolysis, absorbance 300 nm; series mostly up to 38.4 µM
Hit rate of the full screen: of about 2,800 compounds, fewer than 10 were called active. Not all results are given here.
PARAMETER_MEASURED: outcome

Example cases with answers are listed next.
MOLECULE	outcome
COC(=O)c1ccc2nc(C[C@@H]3C[C@@H](C(C)C)[C@H](CNCc4ccccc4F)C=C3C)[nH]c2c1	inactive
NC(=O)Cc1c[nH]c2ncc(-c3ccc(F)cc3)cc12	inactive
CCCCNC(=O)c1cccc(CN2C(=O)CC(c3ccccc3C)C(C(=O)OCC)=C2C)c1 (stereo unspecified)	inactive
CCS(=O)(=O)N1CCC(Cc2nc(-c3cccnc3)n[nH]2)C1 (stereo unspecified)	inactive
Cn1ccc(NC(=O)c2cnc3c(c2)N([S+](=O)([O-])c2cccnc2)CCC3)n1	inactive
COc1ccc(CN2CCNc3cc(Nc4cccnc4)ncc3C2)cc1O	inactive
COc1ccccc1CN1CC(c2noc(-c3ccc(C)cc3C)n2)CC1=O (stereo unspecified)	inactive
C[C@@H](NC(=O)c1cccs1)c1onc(-c2ccc(F)cc2)c1C(=O)O	inactive

Need outcome, item CN1CCCC2(CCN(S(=O)(=O)c3ccc(F)c(F)c3F)C2)C1=O (stereo unspecified)
inactive

Name the recorded outcome for NC(=O)C1(N2CCCCC2)CCN(Cc2cc3n(n2)CCNC3)CC1 .
inactive

What value of outcome has been recorded for this entry: OC[C@]12CCCN[C@@H]1CCN(Cc1cccc(-c3ccccn3)c1)C2
inactive

Using the record for COc1ccc(OC)c(S(=O)(=O)N2CCCC(Cn3c(C)nc4cccnc43)C2)c1 (stereo unspecified) , report its outcome.
inactive

Param item = CC(C)CCNC1(Cc2cc(CN3CCOCC3)on2)COC1 ; retrieve measured outcome.
inactive
